target: Protein Tat (Human immunodeficiency virus type 1 group M subtype B (isolate HXB2)); experiment: inhibitors of Tat binding to TAR RNA, dose response, counter-screen for Vif-APOBEC3G degradation inhibitor project, biochemical, fluorescence polarization, FAM-labeled TAR RNA (AID 1117361)
pIC50: −log10 of the molar value.
Outcome measure: pIC50

{"Compound": "O=C(/C=C/c1ccco1)N(c1ccccn1)c1ccccn1", "Observed result": 5.10}
{"Compound": "Cc1cc2c(c(=O)o1)C(c1ccc([N+](=O)[O-])o1)C(C#N)=C(N)O2 (stereo not drawn)", "Observed result": 5.00}
{"Compound": "NC(=O)Cn1c(=O)n(Cc2ccco2)c(=O)c2c3c(sc21)CCCCC3", "Observed result": 4.81}

====

target: Protein Tat (Human immunodeficiency virus type 1 group M subtype B (isolate HXB2)); assay: inhibitors of Tat binding to TAR RNA, dose response, counter-screen for Vif-APOBEC3G degradation inhibitor project, biochemical, fluorescence polarization, FAM-labeled TAR RNA (AID 1117361)
Outcome measure: IC50

{"Molecule": "O=C(C1CCCO1)N1CCC2(CC1)OCCO2 (configuration not stated)", "Outcome measure": "IC50", "Observed result": "5.55 µM"}
{"Molecule": "COc1cc(OC)c2c(O)c3c(c(-c4c5c(c(O)c6c(OC)cc(OC)cc46)CO[C@@H](C)[C@H]5O)c2c1)[C@H](O)[C@H](C)OC3", "Outcome measure": "IC50", "Observed result": "30.8 µM"}
{"Molecule": "C=C(C)C(=O)Nc1cccc(C2=NOC3(C2)C[C@@H](C(N)=O)N(C(=O)CC(c2ccccc2)c2ccccc2)C3)c1 (some centres not stated)", "Outcome measure": "IC50", "Observed result": "29.3 µM"}
{"Molecule": "Cc1ccc(C)c(-n2c(Cc3cc(=O)[nH]c(=O)[nH]3)nnc2SC(C)C)c1", "Outcome measure": "IC50", "Observed result": "77 µM"}
{"Molecule": "CCN1C(=O)/C(=C\\c2ccco2)C(C(=O)OC)=C1C", "Outcome measure": "IC50", "Observed result": "81.8 µM"}
{"Molecule": "Cc1cc(=O)c2c(O)c(O)ccc2o1", "Outcome measure": "IC50", "Observed result": "47.4 µM"}
{"Molecule": "N=C1S/C(=C\\c2ccco2)C(=O)N1c1ccc2c(c1)OCO2", "Outcome measure": "IC50", "Observed result": "18.4 µM"}
{"Molecule": "O=C(NC1CCC(C(=O)O)CC1)OCc1ccccc1 (configuration not stated)", "Outcome measure": "IC50", "Observed result": "79.8 µM"}
{"Molecule": "O=C(O)C1Nc2c(O)cccc2C2C=CCC12 (configuration not stated)", "Outcome measure": "IC50", "Observed result": "0.703 µM"}
{"Molecule": "COc1cc(CNc2ccc(O)cc2)cc(Br)c1OCc1ccccc1", "Outcome measure": "IC50", "Observed result": "34.5 µM"}
{"Molecule": "O=C1C2C3C=CC(C3)C2C(=O)N1CNc1ccc(O)cc1 (configuration not stated)", "Outcome measure": "IC50", "Observed result": "25.7 µM"}
{"Molecule": "Cc1ccc(C)c2[nH]c(=O)c(CN(Cc3ccc4c(c3)OCO4)Cc3nnnn3Cc3ccco3)cc12", "Outcome measure": "IC50", "Observed result": "39.6 µM"}
{"Molecule": "COC(=O)c1ccc(COc2ccc(/C=N/Nc3cccc(C(=O)O)c3)cc2)cc1", "Outcome measure": "IC50", "Observed result": "62.4 µM"}
{"Molecule": "COc1ccc(N=C2NC(=O)/C(=C\\C=C\\c3ccco3)S2)cc1", "Outcome measure": "IC50", "Observed result": "6.32 µM"}
{"Molecule": "O=[N+]([O-])c1ccc(-c2ccc(/C=N/c3c(-c4ccco4)nc4ccccn34)o2)cc1", "Outcome measure": "IC50", "Observed result": "1.4 µM"}
{"Molecule": "COC(=O)C1=C(C)NC(=O)/C1=C\\c1ccco1", "Outcome measure": "IC50", "Observed result": "39.7 µM"}
{"Molecule": "CCN(CC)c1ccc(NC2CC(=O)N(CCc3ccc(OC)cc3)C2=O)cc1 (configuration not stated)", "Outcome measure": "IC50", "Observed result": "27.3 µM"}
